- Tested on: S. cerevisiae SKN7-toxicity growth rescue, plate reader
- measurement.protocol: Yeast SKN7 toxicity growth rescue counterscreen, Saccharomyces cerevisiae, plate reader, dose confirmatory (AID 624258);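 further: growth read after three days of incubation at 30 °C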
quantity.kind: AC40

Input: Endpoint output: AC40 of Cc1nc(SCC(=O)N2CCN(c3ccccc3)CC2)c2oc3ccccc3c2n1 . Value?
Output: 3530 nM

Input: Endpoint output: AC40 of O=C(COC(=O)c1ccc([N+](=O)[O-])o1)NC1CCCc2ccccc21 (stereo unspecified) . Value?
Output: 2340 nM

Input: Endpoint output: AC40 of CC1=CC(=O)C=C(C)C1=NOS(=O)(=O)c1ccccc1 . Value?
Output: 454 nM

Input: Endpoint output: AC40 of COc1cc(C(=O)ON=C2C3CC4CC(C3)CC2C4)cc(OC)c1OC . Value?
Output: 1790 nM

Input: Endpoint output: AC40 of CCCC(=O)NC(c1ccccc1OC)c1ccc2cccnc2c1O (stereo unspecified) . Value?
Output: 1200 nM

Input: Endpoint output: AC40 of CN(C)S(=O)(=O)c1cccc(NC(=S)NNC(=O)c2cc3ccccc3cc2O)c1 . Value?
Output: 1270 nM

Input: Endpoint output: AC40 of CCCCNC1=CC(=O)C(=O)c2ccccc21 . Value?
Output: 17500 nM

Input: Endpoint output: AC40 of O=C(COc1ccc(Cl)cc1)NCCSCc1cccc(Cl)c1 . Value?
Output: 3160 nM

Input: Endpoint output: AC40 of O=C(Oc1ccc(N(C(=O)c2ccncc2)S(=O)(=O)c2ccc(Cl)cc2)cc1)c1ccncc1 . Value?
Output: 978 nM

Input: Endpoint output: AC40 of CNc1ccc(C=C2C=Cc3ccccc32)cc1 . Value?
Output: 998 nM

Input: Endpoint output: AC40 of COc1ccccc1N(C)S(=O)(=O)c1ccc(Cl)c(C(=O)NNC(=O)c2ccccc2O)c1 . Value?
Output: 1950 nM

Input: Endpoint output: AC40 of Cc1cccc(N2CCN(C(=O)C3CCCCC3)CC2)c1C . Value?
Output: 19300 nM

Input: Endpoint output: AC40 of CCCCCCCCCCOC(=O)Cn1c(COc2ccc(OC)cc2)[n+](C)c2ccccc21 . Value?
Output: 3330 nM

Input: Endpoint output: AC40 of Cc1noc2ncnc(SCc3ccc(C(F)(F)F)cc3)c12 . Value?
Output: 965 nM

Input: Endpoint output: AC40 of CC1CCCCC1NC(=O)/C(C#N)=C/c1ccccc1F (stereo unspecified) . Value?
Output: 2040 nM

Input: Endpoint output: AC40 of O=C(O)c1ccccc1NS(=O)(=O)c1cccc(-n2sc3ccccc3c2=O)c1 . Value?
Output: 4770 nM

Input: Endpoint output: AC40 of CC1=CC(=O)C(C(C)C)=C/C1=N/OC(=O)c1cccc([N+](=O)[O-])c1 . Value?
Output: 1050 nM

Input: Endpoint output: AC40 of CC(=O)NC(c1ccc(Cl)cc1Cl)c1ccc2cccnc2c1O (stereo unspecified) . Value?
Output: 1380 nM

Input: Endpoint output: AC40 of Cc1ccc(-n2nnnc2C(Cl)c2nnnn2-c2ccc(C)cc2)cc1 . Value?
Output: 497 nM

Input: Endpoint output: AC40 of Cc1cc(C(=O)N/N=C/c2cc(Br)cc([N+](=O)[O-])c2O)c2ccccc2n1 . Value?
Output: 1270 nM

Input: Endpoint output: AC40 of C/C(=N\NC(=S)NC1CCCCC1)c1c(F)cccc1F . Value?
Output: 3390 nM
